# ASSAY_INFO: Drug level in Beagle dog lymph node iliac at 5 mg/kg administered intramuscularly after 1 month
# Assay type: ADME, organism-based, Canis lupus familiaris
# Parameters: dose 5 mg/kg, route intramuscular
# MEASUREMENT_SETUP: im, read-out: Drug uptake
PROPERTY_NAME: concentration at 730.5 h (ng/g)
The reply should contain only the number, in ng/g.

[ask] Kindly indicate its recorded concentration at 730.5 h. Item: Cc1cc(/C=C/C#N)cc(C)c1Nc1ccnc(Nc2ccc(C#N)cc2)n1 [RILPIVIRINE]
[reply] 19000

###

# ASSAY_INFO: Drug level in Beagle dog liver at 5 mg/kg administered intramuscularly after 6 months
# Format: ADME, organism-based, Canis lupus familiaris
# Parameters: dose 5 mg/kg, route intramuscular
# MEASUREMENT_SETUP: im, read-out: Drug uptake
PROPERTY_NAME: concentration at 4383 h (ng/g)
The reply should contain only the number, in ng/g.

[ask] Kindly indicate its recorded concentration at 4383 h. Item: Cc1cc(/C=C/C#N)cc(C)c1Nc1ccnc(Nc2ccc(C#N)cc2)n1
[reply] 11.6
